Source: patent US7375083B2

Give measured hydrocodone plus hydromorphone concentration for each item. Keep answers brief.
procedure details: Oral bioavailability of hydrocodone conjugates in rats, LC/MS/MS
condition context: oral, 1 mg/kg dose, 3 Hours
Give bare numbers, in ng/mL.

compound	numeric readout
CC[C@H](C)[C@H](NC(=O)[C@H](CC(=O)O)NC(=O)[C@@H](N)CC(=O)O)C(=O)OC1=CC[C@H]2[C@H]3Cc4ccc(OC)c5c4[C@@]2(CCN3C)[C@H]1O5 [DDI-HC, Asp-Asp-Ile-Hydrocodone]	0

Continue with the next compound.
Just so you know, measured hydrocodone plus hydromorphone concentration for CC[C@H](C)[C@H](NC(=O)[C@H](Cc1ccc(O)cc1)NC(=O)[C@@H](N)Cc1ccc(O)cc1)C(=O)OC1=CC[C@H]2[C@H]3Cc4ccc(OC)c5c4[C@@]2(CCN3C)[C@H]1O5 [YYI-HC, Tyr-Tyr-Ile-Hydrocodone] came out at 1.5

----------
procedure details: Oral bioavailability in rats at escalating doses, LC/MS/MS
condition context: male, Sprague-Dawley, rat, in vivo, po, 12 mg/kg
recorded metric: AUC(0-inf)
// return the numeric value with its unit appended

The molecule listed as CC(Cc1ccccc1)NC(=O)C(N)CCCCN (stereo not shown) shows AUC(0-inf) equal to 4510 ng·h/mL

----------
procedure details: Intranasal plasma levels of oxycodone conjugates in rats, ELISA
condition context: intranasal 2 mg/kg
So I've got a bunch of molecules here, and I need their % AUC values.
Answers are plain numbers, in %.

The following molecules have reported results that may help.
molecule	% AUC / %
CC[C@H](C)[C@H](N)C(=O)N[C@@H](Cc1ccc(O)cc1)C(=O)N[C@H](C(=O)OC1=CC[C@@]2(OC(=O)[C@@H](NC(=O)[C@H](Cc3ccc(O)cc3)NC(=O)[C@@H](N)[C@@H](C)CC)C(C)C)[C@H]3Cc4ccc(OC)c5c4[C@@]2(CCN3C)[C@H]1O5)C(C)C [[Ile-Tyr-Val]2-OC]	3
COc1ccc2c3c1O[C@H]1C(OC(=O)[C@@H](NC(=O)[C@H](CCC(=O)O)NC(=O)CN)C(C)C)=CC[C@@]4(OC(=O)[C@@H](NC(=O)[C@H](CCC(=O)O)NC(=O)CN)C(C)C)[C@@H](C2)N(C)CC[C@]314 [[Gly-Glu-Val]2-OC]	29
COc1ccc2c3c1O[C@H]1C(OC(=O)[C@@H](NC(=O)[C@H](Cc4ccc(O)cc4)NC(=O)CN)C(C)C)=CC[C@@]4(OC(=O)[C@@H](NC(=O)[C@H](Cc5ccc(O)cc5)NC(=O)CN)C(C)C)[C@@H](C2)N(C)CC[C@]314 [[Gly-Tyr-Val]2-OC]	56
COc1ccc2c3c1O[C@H]1C(OC(=O)[C@@H](NC(=O)[C@H](CCC(=O)O)NC(=O)[C@@H]4CCCN4)C(C)C)=CC[C@@]4(OC(=O)[C@@H](NC(=O)[C@H](CCC(=O)O)NC(=O)[C@@H]5CCCN5)C(C)C)[C@@H](C2)N(C)CC[C@]314 [[Pro-Glu-Val]2-OC]	34

Fill in % AUC for each of the 4 molecules listed.
1. COc1ccc2c3c1O[C@H]1C(OC(=O)[C@@H](NC(=O)[C@H](Cc4ccc(O)cc4)NC(=O)[C@@H](N)CC(C)C)C(C)C)=CC[C@@]4(OC(=O)[C@@H](NC(=O)[C@H](Cc5ccc(O)cc5)NC(=O)[C@@H](N)CC(C)C)C(C)C)[C@@H](C2)N(C)CC[C@]314 [[Leu-Tyr-Val]2-OC]
2. COc1ccc2c3c1O[C@H]1C(OC(=O)[C@@H](NC(=O)[C@H](Cc4ccc(O)cc4)NC(=O)[C@@H](N)CCC(=O)O)C(C)C)=CC[C@@]4(OC(=O)[C@@H](NC(=O)[C@H](Cc5ccc(O)cc5)NC(=O)[C@@H](N)CCC(=O)O)C(C)C)[C@@H](C2)N(C)CC[C@]314 [[Glu-Tyr-Val]2-OC]
3. COc1ccc2c3c1O[C@H]1C(OC(=O)[C@@H](NC(=O)[C@@H]4CCCN4C(=O)[C@@H](N)CCC(=O)O)C(C)C)=CC[C@@]4(OC(=O)[C@@H](NC(=O)[C@@H]5CCCN5C(=O)[C@@H](N)CCC(=O)O)C(C)C)[C@@H](C2)N(C)CC[C@]314 [[Glu-Pro-Val]2-OC]
4. COc1ccc2c3c1O[C@H]1C(OC(=O)[C@@H](NC(=O)CNC(=O)[C@@H](N)CO)C(C)C)=CC[C@@]4(OC(=O)[C@@H](NC(=O)CNC(=O)[C@@H](N)CO)C(C)C)[C@@H](C2)N(C)CC[C@]314 [[Ser-Gly-Val]2-OC]

Result:
1: 4; 2: 18; 3: 56; 4: 64
